Reported log2 ratio of Biotin-Ahx-Ub-VS probe labelling is given for each of the following compounds.
# systemName: OTUD6B (UniProt Q8N6M0)
# Sequence (whole entry): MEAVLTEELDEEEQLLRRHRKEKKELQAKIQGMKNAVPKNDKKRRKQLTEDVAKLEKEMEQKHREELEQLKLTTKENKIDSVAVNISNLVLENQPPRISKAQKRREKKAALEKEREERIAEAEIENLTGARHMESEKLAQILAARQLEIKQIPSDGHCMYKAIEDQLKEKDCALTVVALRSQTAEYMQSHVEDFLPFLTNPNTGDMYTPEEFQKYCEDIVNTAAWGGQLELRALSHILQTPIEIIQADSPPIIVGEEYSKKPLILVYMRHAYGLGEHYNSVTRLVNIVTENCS
# assayRemarks: log2 ratio of Biotin-Ahx-Ub-VS probe labelling (fragment/DMSO); higher = less target engagement (more negative = stronger competition), active = hit call of the paper (q ≤ 0.05, log2 ratio ≤ -1)
# measurementSetup: compound concentration: 200 uM; treatment time: 3 h

Below are worked cases with known answers.
>  <compound>
Cc1cccnc1NC(=O)C1CCN(C(=O)CCl)CC1.Cl

>  <result>
-0.127 (inactive)

$$$$
>  <compound>
Cc1cc(Cl)ccc1NC(=O)CCl

>  <result>
-0.0452 (inactive)

$$$$
>  <compound>
Cc1cc(C2CCCN2C(=O)CCl)nn1C.Cl (stereo not drawn)

>  <result>
-0.252 (inactive)

$$$$
>  <compound>
O=C(CCl)Nc1nc(-c2cccs2)cs1

>  <result>
-0.434 (inactive)

$$$$
>  <compound>
Cc1ccccc1C1(CNC(=O)CCl)CCOCC1

>  <result>
-0.054 (inactive)

$$$$

I have this compound here, Cc1noc(N2CCN(C(=O)CCl)CC2)n1.Cl , and I need its recorded log2 ratio of Biotin-Ahx-Ub-VS probe labelling.
-0.229 (inactive)

I have this compound here, O=C(CCl)N1CCN(c2nc3ccccc3o2)CC1 , and I need its recorded log2 ratio of Biotin-Ahx-Ub-VS probe labelling.
-0.147 (inactive)

I have this compound here, O=C(CCl)N1CCC(C(=O)N2CCCCCC2)CC1 , and I need its recorded log2 ratio of Biotin-Ahx-Ub-VS probe labelling.
0.0239 (inactive)

I have this compound here, O=C(CCl)N1CCOCC1C1CC1 (stereo not drawn) , and I need its recorded log2 ratio of Biotin-Ahx-Ub-VS probe labelling.
-0.211 (inactive)

====

# systemName: UniProt Q8TE49
# Sequence (Q8TE49 whole entry, the tested form may be a part): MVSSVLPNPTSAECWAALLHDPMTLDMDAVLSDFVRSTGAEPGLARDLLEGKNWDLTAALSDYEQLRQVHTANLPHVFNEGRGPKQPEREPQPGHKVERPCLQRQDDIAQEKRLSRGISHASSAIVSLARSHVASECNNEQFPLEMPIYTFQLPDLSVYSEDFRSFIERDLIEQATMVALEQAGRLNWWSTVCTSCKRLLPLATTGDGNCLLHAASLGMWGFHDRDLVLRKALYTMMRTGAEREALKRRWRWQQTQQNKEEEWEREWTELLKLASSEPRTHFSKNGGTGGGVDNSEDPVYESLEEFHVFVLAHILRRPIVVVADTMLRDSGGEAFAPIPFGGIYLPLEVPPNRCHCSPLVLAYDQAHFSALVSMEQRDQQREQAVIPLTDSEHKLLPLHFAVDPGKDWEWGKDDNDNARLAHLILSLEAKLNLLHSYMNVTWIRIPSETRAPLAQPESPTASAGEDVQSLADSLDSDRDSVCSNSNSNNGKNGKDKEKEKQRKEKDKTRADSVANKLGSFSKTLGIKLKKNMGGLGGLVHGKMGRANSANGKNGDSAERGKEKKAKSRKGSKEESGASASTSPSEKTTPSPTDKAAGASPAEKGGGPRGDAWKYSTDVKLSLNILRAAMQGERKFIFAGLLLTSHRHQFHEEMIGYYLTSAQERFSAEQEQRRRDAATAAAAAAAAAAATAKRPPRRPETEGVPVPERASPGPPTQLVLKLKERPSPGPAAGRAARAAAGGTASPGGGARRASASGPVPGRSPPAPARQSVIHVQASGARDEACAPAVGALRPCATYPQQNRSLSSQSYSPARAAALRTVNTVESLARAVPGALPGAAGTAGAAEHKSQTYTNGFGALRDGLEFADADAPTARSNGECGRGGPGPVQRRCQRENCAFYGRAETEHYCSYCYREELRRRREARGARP
# assayRemarks: log2 ratio of Biotin-Ahx-Ub-VS probe labelling (fragment/DMSO); higher = less target engagement (more negative = stronger competition), active = hit call of the paper (q ≤ 0.05, log2 ratio ≤ -1)
# measurementSetup: compound concentration: 200 uM; treatment time: 3 h
Classes to choose from: active, inactive

>  <compound>
Cc1nc(CN2CCN(C(=O)CCl)CC2)cs1

>  <systemName>
UniProt Q8TE49

>  <groupLabel>
inactive

$$$$
>  <compound>
O=C(CCl)N1CCC(OCc2ccccc2F)CC1

>  <systemName>
UniProt Q8TE49

>  <groupLabel>
inactive

$$$$
>  <compound>
O=C(CCl)N1CCOC(CCc2ccccc2)C1 (centres undefined)

>  <systemName>
UniProt Q8TE49

>  <groupLabel>
inactive

$$$$
>  <compound>
CC1CN(c2ccc(NC(=O)CCl)cc2)CC(C)O1 (centres undefined)

>  <systemName>
UniProt Q8TE49

>  <groupLabel>
inactive

$$$$
>  <compound>
Cl.O=C(CCl)N1CCN(Cc2ccccc2)CC1

>  <systemName>
UniProt Q8TE49

>  <groupLabel>
inactive

$$$$

Returns: the outcome recorded for O=C(CCl)Nc1cccc(C(=O)N2CCSCC2)c1 in this assay.
inactive

Returns: the outcome recorded for CCN1C(=O)C2CN(C(=O)CCl)CCN2C1=O (centres undefined) in this assay.
inactive

Returns: the outcome recorded for Cc1noc(C)c1CNC(=O)CCl in this assay.
active

Returns: the outcome recorded for O=C(O)C1Cc2ccccc2CN1C(=O)CCl (centres undefined) in this assay.
inactive

Returns: the outcome recorded for CS(=O)(=O)c1ccc(CNC(=O)CCl)cc1 in this assay.
inactive

Returns: the outcome recorded for O=C(CCl)N1CCc2[nH]c3ccccc3c2C1 in this assay.
inactive

Returns: the outcome recorded for Cc1cnc2[nH]cc(CCNC(=O)CCl)c2c1 in this assay.
inactive

Returns: the outcome recorded for Cc1n[nH]c(=O)c2c(NC(=O)CCl)oc(C)c12 in this assay.
inactive

Returns: the outcome recorded for O=C(CCl)N1CC2(CCOCC2)C1 in this assay.
inactive
